The values you see were collected from ChEMBL document CHEMBL4033681.

# system-tested: Sigma intracellular receptor 2 (Rattus norvegicus)
# Sequence (Q5U3Y7 whole entry): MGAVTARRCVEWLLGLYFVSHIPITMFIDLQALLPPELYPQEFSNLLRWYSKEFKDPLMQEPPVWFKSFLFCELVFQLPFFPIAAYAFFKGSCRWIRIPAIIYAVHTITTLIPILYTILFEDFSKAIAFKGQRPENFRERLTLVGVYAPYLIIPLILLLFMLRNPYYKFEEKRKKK
# assay-comment: Displacement of [3H]DTG from sigma-2 receptor in rat liver membranes after 120 mins by microbeta scintillation counting method
Answer each item with its documented Ki.
Numbers only here, please. The scale is nM.

Input line: So what's the measured Ki for this one? COC(=O)C[C@@H]1Cc2ccccc2[C@H](CCN2CCC(c3ccccc3)CC2)O1
Output line: 32

Input line: I am curious: what Ki value has been reported for OCC[C@@H]1Cc2ccccc2C2(CCN(CC3CCCCC3)CC2)O1 ?
Output line: 614

Input line: Param item = OCC[C@@H]1Cc2ccccc2C2(CCN(CCCc3ccccc3)CC2)O1 ; retrieve measured Ki.
Output line: 519

Input line: For the compound OCC[C@H]1Cc2ccccc2C2(CCN(CC3CCCCC3)CC2)O1 , what Ki is on record?
Output line: 510

Input line: # get_value(readout='Ki', item= OCC[C@H]1Cc2ccccc2C2(CCN(CCCc3ccccc3)CC2)O1 )
Output line: 1220

Input line: // returns reported Ki for input CCCCCCCCN1CCC2(CC1)O[C@H](CCO)Cc1ccccc12
Output line: 260

Input line: Which value of Ki has been reported for COC(=O)C[C@H]1Cc2ccccc2[C@@H](CCN2CCC(c3ccccc3)CC2)O1 in the records?
Output line: 525

Input line: For CCCCCCCCN1CCC2(CC1)O[C@@H](CCO)Cc1ccccc12 , what is its reported Ki?
Output line: 68
